Test system: FB
Test: Euclidean distance of Cell Painting phenotypic profile (signed KS, 77 features) to DMSO centroid (dimensionless distance); 5 or 10 uM (library dependent); higher = stronger phenotypic change vs DMSO (phenoactivity)
Details: 48 h
Structures can show the parent of a compound that is named as a salt.
Quick rule for you: Euclidean distance at 1 or higher means satisfied, lower means not satisfied.

[[record]]
compound = "NC(=O)c1ncn([C@@H]2O[C@H](CO)[C@@H](O)[C@H]2O)n1"
answer_label = "not satisfied"

[[record]]
compound = "CCOC(=O)[C@H](CCc1ccccc1)N[C@@H](C)C(=O)N1CCC[C@H]1C(=O)O [Enalapril Maleate]"
answer_label = "not satisfied"

[[record]]
compound = "CC1(C)O[C@@H]2C[C@H]3[C@@H]4CCC5=CC(=O)CC[C@]5(C)[C@@]4(F)[C@@H](O)C[C@]3(C)[C@]2(C(=O)CCl)O1 [Halcinonide]"
answer_label = "satisfied"

[[record]]
compound = "CCCCCCCCCCCCCCCCCC(=O)O"
answer_label = "satisfied"

[[record]]
compound = "NS(=O)(=O)c1ccccc1 [Benzenesulfonamide]"
answer_label = "satisfied"

[[record]]
compound = "CCN(CC)C(=O)c1cccnc1 [Nikethamide]"
answer_label = "satisfied"

[[record]]
compound = "O=C(Nc1ccccc1)c1cc([N+](=O)[O-])ccc1Cl"
answer_label = "satisfied"

[[record]]
compound = "S=P(N1CC1)(N1CC1)N1CC1"
answer_label = "satisfied"

[[record]]
compound = "COc1ccc2[nH]c([S@@+]([O-])Cc3ncc(C)c(OC)c3C)nc2c1 [Esomeprazole Sodium]"
answer_label = "not satisfied"

[[record]]
compound = "CN(C)CCC=C1c2ccccc2C(C)(C)c2ccccc21 [Melitracen hydrochloride]"
answer_label = "satisfied"

[[record]]
compound = "CCNC(=O)[C@@H]1CCCN1C(=O)[C@H](CCCNC(=N)N)NC(=O)[C@H](CC(C)C)NC(=O)[C@@H](CC(C)C)NC(=O)[C@H](Cc1ccc(O)cc1)NC(=O)[C@H](CO)NC(=O)[C@H](Cc1c[nH]c2ccccc12)NC(=O)[C@H](Cc1c[nH]cn1)NC(=O)[C@@H]1CCC(=O)N1 [Leuprolide Acetate]"
answer_label = "not satisfied"

[[record]]
compound = "CC(C)N1CCN(c2ccc(Nc3ncc4cc5n(c4n3)C3(CCCCC3)CNC5=O)nc2)CC1"
answer_label = "satisfied"

[[record]]
compound = "CN(C)CCCN1c2ccccc2Sc2ccccc21 [Promazine hydrochloride]"
answer_label = "satisfied"

[[record]]
compound = "O=C(O)c1ccccc1C(=O)Nc1ccc(S(=O)(=O)Nc2nccs2)cc1"
answer_label = "satisfied"

[[record]]
compound = "OCCN1CCN(CC/C=C2/c3ccccc3Sc3ccc(C(F)(F)F)cc32)CC1 [Flupenthixol dihydrochloride]"
answer_label = "satisfied"

[[record]]
compound = "O=C(Cn1cnnn1)N[C@@H]1C(=O)N2C(C(=O)O)=C(CSc3nncs3)CS[C@H]12"
answer_label = "satisfied"

[[record]]
compound = "CCN(CC)C(=O)N1CCN(C)CC1 [Diethylcarbamazine citrate]"
answer_label = "not satisfied"


----------
System: A549
Test: Euclidean distance of Cell Painting phenotypic profile (signed KS, 77 features) to DMSO centroid (dimensionless distance); 5 or 10 uM (library dependent); higher = stronger phenotypic change vs DMSO (phenoactivity)
Conditions: 48 h
Where a name gives a salt, the structure may show the parent alone.
Euclidean distance for assorted compounds
readout.label: Euclidean distance

[[record]]
compound = "CN(C)N(C)C(=O)[C@@]1(Cc2ccccc2)CCCN(C(=O)[C@@H](Cc2c[nH]c3ccccc23)NC(=O)C(C)(C)N)C1 [Anamorelin]"
result = 0.796

[[record]]
compound = "N=C(N)NC(=O)c1nc(Cl)c(N)nc1N [Amiloride HCl]"
result = 0.988

[[record]]
compound = "C#CCC(Cc1cnc2nc(N)nc(N)c2n1)c1ccc(C(=O)N[C@@H](CCC(=O)O)C(=O)O)cc1 (stereo partly drawn) [Pralatrexate]"
result = 2.98

[[record]]
compound = "CN1CCC(=C2c3ccccc3CC(=O)c3sccc32)CC1 [Ketotifen Fumarate]"
result = 0.639

[[record]]
compound = "COc1ccccc1OCC(O)COC(N)=O (stereo not drawn) [Methocarbamol]"
result = 0.507

[[record]]
compound = "CCN(CC)CCNC(=O)c1ccc(N)cc1 [Procainamide HCl]"
result = 1.02

[[record]]
compound = "CO[C@@H]1[C@H](OC(=O)/C=C/C=C/C=C/C=C/C(=O)O)CC[C@]2(CO2)[C@H]1[C@@]1(C)O[C@@H]1CC=C(C)C [Fumagillin]"
result = 2.91

[[record]]
compound = "Cn1c(=O)c2[nH]c(Br)nc2n(C)c1=O [Pamabrom]"
result = 0.799

